Reference source for all entries: paper PMC7155171

Listed here: items and their measured inhibition at 2 µM.
System: HepG2-A16-CD81 hepatocytes
Test: cells
Set-up: Uninfected hepatocyte viability, CellTiter-Glo luminescence
Conditions: sheet CDD Export 1;, cytotoxicity primary screen, read-out: Table S5. Liver stage reconfirmation data / HepG2 Cytotoxicity primary screen (2uM): % Inhibition

COMPOUND: Cc1csc2ncnc(N3CCC(Cn4cc(C(C)(C)N)nn4)CC3)c12
inhibition at 2 µM: 4.6%
//
COMPOUND: CC(=O)Nc1ncc(S(=O)(=O)Nc2ccc3c(c2)OCCO3)s1
inhibition at 2 µM: -2.36%
//
COMPOUND: O=S(=O)(c1ccc(Cl)s1)N1CCN(Cc2nc(-c3ccco3)cs2)CC1
inhibition at 2 µM: 12.1%
//
COMPOUND: CC1(c2ccccc2)CCCN(Cc2cncn2C2CCCC2)C1 (centres unmarked)
inhibition at 2 µM: -6.73%
//
COMPOUND: Cn1cncc1CN1CCCC1c1cncc(Oc2ccc(Cl)cc2)n1 (centres unmarked)
inhibition at 2 µM: 0.825%

----------
System: HepG2-A16-CD81 hepatocytes
Assay: HepG2 cytotoxicity screening (CellTiter-Glo)
Conditions: 2uM, primary screen
Reported HepG2 Cytotoxicity primary screen (2uM): % Inhibition values for a set of compounds
ASSAY READOUT: HepG2 Cytotoxicity primary screen (2uM): % Inhibition (%)

COMPOUND: CC(Nc1ncnc2c1CCNC2)c1ccc2c(c1)CCCC2 (stereo not shown) [UCSD-0833335]
ENDPOINT RESULT: 0.57
--
COMPOUND: O=S(=O)(c1ccc(Cl)s1)N1CCN(Cc2nc(-c3ccco3)cs2)CC1 [UCSD-0787251]
ENDPOINT RESULT: 12.14
--
COMPOUND: Fc1ccc(N2CCCN(c3ccc(Cn4ccnc4)cn3)CC2)cc1 [UCSD-0828381]
ENDPOINT RESULT: 3.83
--
COMPOUND: COC(=O)c1sc(NCc2ccc(N3CCC(O)CC3)c(F)c2)nc1Cl [UCSD-0616240]
ENDPOINT RESULT: 5.85
--
COMPOUND: COC1CCN(c2ccc(NC(=O)C3CC3)cc2C(F)(F)F)CC1 [UCSD-0582177]
ENDPOINT RESULT: 12.40
--
COMPOUND: Cc1nc(N2CC[C@@H](NC(=O)c3cnccn3)[C@H](O)C2)c2ccsc2n1 [UCSD-0839060]
ENDPOINT RESULT: -14.64
--
COMPOUND: O=C([C@H]1C[C@@H]2CCN(c3cccc(F)c3)C[C@H]2O1)N1CCCC1 [UCSD-0792262]
ENDPOINT RESULT: 4.38
--
COMPOUND: CCc1ccc(-c2ncc3c(n2)N(C)CCN(CCN(C)C)C3=O)cc1 [UCSD-0824219]
ENDPOINT RESULT: 4.38
--
COMPOUND: COc1cccc(CN2CCc3nc(C(=O)NCC(C)C)sc3CC2)c1 [UCSD-0790206]
ENDPOINT RESULT: -10.23
--
COMPOUND: Clc1ccccc1-c1cc(CNc2ncnc3c2CCNCC3)no1 [UCSD-0827811]
ENDPOINT RESULT: -1.07
--
COMPOUND: Cc1cc(-c2cnc(NCc3cccnc3)nc2C(C)(C)C)on1 [UCSD-0802583]
ENDPOINT RESULT: -8.43
--
COMPOUND: N#Cc1c(Cl)nsc1NCC1(c2ccccc2)CCC1 [UCSD-0818294]
ENDPOINT RESULT: 11.95
--
COMPOUND: COc1ccc(-c2cc(CNc3ncnc4c3CCNCC4)no2)cc1 [UCSD-0833048]
ENDPOINT RESULT: 4.02
--
COMPOUND: Cc1noc(NC(=O)c2ccc(Br)s2)n1 [UCSD-0844983]
ENDPOINT RESULT: 5.11
--
COMPOUND: CC(C)Cn1ccc2c(NC(=O)c3n[nH]c4c3CCC4)cccc21 [UCSD-0786893]
ENDPOINT RESULT: 3.16
--
COMPOUND: O=C(CN1CCCC(c2ccn[nH]2)C1)Nc1nc2c(s1)CCCC2 (stereo not shown) [UCSD-0818422]
ENDPOINT RESULT: 7.13
--
COMPOUND: COc1cccc(CN2CCN(c3ccc4nncn4n3)C(C)C2)c1 (stereo not shown) [UCSD-0601459]
ENDPOINT RESULT: -7.20
--
COMPOUND: CC(=O)c1ccc(N2CCC(CO)(CCOc3ccccc3)CC2)nc1 [UCSD-0839049]
ENDPOINT RESULT: 17.47
--
COMPOUND: Cn1cc(NS(=O)(=O)c2ccc(OC(F)(F)F)cc2)ccc1=O [UCSD-0710715]
ENDPOINT RESULT: -4.65

----------
System: P. falciparum (NF54) stage V gametocytes
Assay: Stage V gametocyte viability assay (MitoTracker Red CMXRos high content imaging)
Format: cell-based, Plasmodium falciparum
Conditions: Plasmodium falciparum, NF54, 72 h, read-out: Stg V Gam dose response IC50 (µM) (n=3), 10-point dose response, n=3, 72 h
In this section we review reported log10 IC50 values for a set of compounds.
ASSAY READOUT: log10 IC50 (log10 of the value in µM)

COMPOUND: CC(c1cccs1)N(C)Cc1cnc(-c2ccccn2)nc1 (centres unmarked) [DDD01246628]
log10 IC50: -0.53
--
COMPOUND: c1ccc(CCN2CCCC2c2cccc(Nc3nccs3)n2)cc1 (centres unmarked) [DDD01056785]
log10 IC50: -0.41
--
COMPOUND: CC(C)Nc1nc2c(c(NC3CC3)n1)CCN(Cc1nccn1C)CC2 [DDD01031405]
log10 IC50: 0.42
--
COMPOUND: COCc1noc(-c2ccc(N(C)Cc3ncccc3C)nc2)n1 [DDD01248427]
log10 IC50: 0.01
--
COMPOUND: Cc1cccc(CN2CCCC2c2cccc(Nc3nccs3)n2)c1 (centres unmarked) [DDD01057018]
log10 IC50: -0.94
--
COMPOUND: COc1cc(CNC(c2ccccc2)c2nccn2C)cc(OC)c1 (centres unmarked) [DDD01296506]
log10 IC50: -0.29
--
COMPOUND: CCc1c(-c2ccccc2)nc2c(c(C)c(C)n2CCN(C)C)c1N [DDD01026714]
log10 IC50: -0.06
--
COMPOUND: CN(Cc1ccsc1)c1nc(-c2ccccn2)nc2c1CCNCC2 [DDD01243664]
log10 IC50: -0.14
--
COMPOUND: CN(Cc1nccs1)c1nc(-c2ccccn2)nc2c1CCNCC2 [DDD01258014]
log10 IC50: 0.07
--
COMPOUND: Cc1cn2c(n1)C(CNCC1=Cc3ccccc3OC1)CCC2 (centres unmarked) [DDD01073292, CC1=CN2CCCC(CNCC3=CC4=CC=CC=C4OC3)C2=N1]
log10 IC50: 0.12
--
COMPOUND: COCC(C)NCc1nc(-c2ccc(C)cc2)c(-c2ccccn2)[nH]1 (centres unmarked) [DDD01244737]
log10 IC50: 0.21
--
COMPOUND: NC(=O)c1cccc2nc([C@H]3CCN(Cc4ccccn4)C3)[nH]c12 [DDD01025389]
log10 IC50: -0.90
--
COMPOUND: Cc1cccc(CNC(Cc2ccsc2)c2nc(C)c(C)s2)n1 (centres unmarked) [DDD01059048]
log10 IC50: 0.59

----------
Tested on: P. falciparum Dd2 (PfLuc) line expressing firefly luciferase, asexual blood stage
Experiment: microbe, parasite or virus in culture
Format: cell-based, Plasmodium falciparum
Conditions: Plasmodium falciparum; 96 h incubation, Dd2 luciferase; read-out: 96 hour Pfluc IC50

COMPOUND: Clc1ccc(C2(CNC3=NCCN3)CCCC2)cc1 [DDD01067443]
RELATION SIGN: =
IC50 (nM): 1000
--
COMPOUND: CN(Cc1ncc[nH]1)c1nc(-c2ccccn2)nc2c1CCNCC2 [DDD01254777]
RELATION SIGN: =
IC50 (nM): 210
--
COMPOUND: COc1cc(C(=O)NCC2(N(C)C)CCN(C)CC2)c2ccccc2n1 [DDD01057375]
RELATION SIGN: =
IC50 (nM): 7.14
--
COMPOUND: CN(Cc1nccs1)c1nc(-c2ccccn2)nc2c1CCNCC2 [DDD01258014]
RELATION SIGN: =
IC50 (nM): 460
--
COMPOUND: CC(NCC1CCN(CCO)CC1)c1ccc(C(F)(F)F)cc1 (centres unmarked) [DDD01073719]
RELATION SIGN: =
IC50 (nM): 610
--
COMPOUND: CN1CCN(CC(NCc2ccc(F)c(F)c2)c2ccccc2)CC1 (centres unmarked) [DDD01069631]
RELATION SIGN: =
IC50 (nM): 910
--
COMPOUND: Clc1ccccc1C1(c2ccnc(CC3CC3)n2)CCNCC1 [DDD01257764]
RELATION SIGN: =
IC50 (nM): 580
--
COMPOUND: Cc1cc(CN(C)c2nc(-c3ccccn3)nc3c2CCNCC3)n[nH]1 [DDD01255965]
RELATION SIGN: >
IC50 (nM): 10000
--
COMPOUND: CC(NCC1CCN(CCO)CC1)c1ccc(F)c(Cl)c1 (centres unmarked) [DDD01073649]
RELATION SIGN: =
IC50 (nM): 800
--
COMPOUND: c1cc(-c2n[nH]cc2-c2ccnc(N3CCCCCC3)n2)ccn1 [DDD01235864]
RELATION SIGN: =
IC50 (nM): 30
--
COMPOUND: c1cc(-c2n[nH]cc2-c2ccnc(N3CCCC3)n2)ccn1 [DDD01235828]
RELATION SIGN: =
IC50 (nM): 170
--
COMPOUND: CN1CCC(N(C)c2ccccc2CNCc2ccco2)CC1 [DDD01074928]
RELATION SIGN: =
IC50 (nM): 210
--
COMPOUND: CC(NCC1CCN(CCO)CC1)c1ccc(OC(F)(F)F)cc1 (centres unmarked) [DDD01073716]
RELATION SIGN: =
IC50 (nM): 550
--
COMPOUND: Clc1ccccc1C1(c2ccnc(C3CCCC3)n2)CCNCC1 [DDD01245610]
RELATION SIGN: =
IC50 (nM): 760
